- System: P. vulgatus RND KO;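 note: active when median AUC fell below 0.1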
- test.protocol: growth AUC normalised to DMSO control (median) (fraction of control); higher = less growth inhibition, active = hit call of the paper
- test.parameters: 20 µM
Structures can show the parent of a compound that is named as a salt.
recorded.metric: growth AUC normalised to DMSO control

Completed entries (count: 3):
Just so you know, measured growth AUC normalised to DMSO control for O=C(O)COC(=O)Cc1ccccc1Nc1c(Cl)cccc1Cl [Aceclofenac] came out at 0.995 (inactive)

Just so you know, measured growth AUC normalised to DMSO control for CC12CC3CC(C)(C1)CC(N)(C3)C2 [Memantine hydrochloride] came out at 1.01 (inactive)

Just so you know, measured growth AUC normalised to DMSO control for CCn1cc(C(=O)O)c(=O)c2ccc(C)nc21 [Nalidixic acid sodium salt] came out at 0.985 (inactive)

Shift focus to the following entry.
Just so you know, measured growth AUC normalised to DMSO control for CC1CNc2c(cccc2S(=O)(=O)N[C@@H](CCCNC(=N)N)C(=O)N2CC[C@@H](C)C[C@@H]2C(=O)O)C1 (some centres undefined) [Argatroban] came out at 1.03 (inactive)

* * *

Items are presented alongside their recorded growth AUC normalised to DMSO control.
- Tested on: Shigella flexneri
- test.protocol: growth AUC normalised to DMSO control (fraction of control); higher = less growth inhibition, active = hit call of the paper
- test.parameters: 20 µM
Counter-ions that a name gives are not always drawn.

Just so you know, measured growth AUC normalised to DMSO control for Cc1ccc(NC(=O)c2ccc(CN3CCN(C)CC3)cc2)cc1Nc1nccc(-c2cccnc2)n1 [Imatinib] came out at 1.06 (inactive)

Just so you know, measured growth AUC normalised to DMSO control for CC(CN(C)C)C(C)(O)Cc1ccc(Cl)cc1 (stereo not drawn) [Clobutinol hydrochloride] came out at 0.98 (inactive)

---
Just so you know, measured growth AUC normalised to DMSO control for C=CC[N@@+]12CC[C@@]34c5ccccc5N5/C=C6/[C@H]7C[C@H]8[C@@]9(CC[N@@+]8(CC=C)C/C7=C/CO)c7ccccc7N(/C=C(/[C@@H](C[C@@H]31)/C(=C\CO)C2)[C@H]54)[C@@H]69 [Alcuronium chloride] came out at 1 (inactive)

Just so you know, measured growth AUC normalised to DMSO control for Nc1ccn([C@@H]2CS[C@H](CO)O2)c(=O)n1 [Lamivudine] came out at 0.986 (inactive)

Just so you know, measured growth AUC normalised to DMSO control for CCN(CC)C(=O)c1ccc(O)c(OC)c1 [Ethamivan] came out at 1.03 (inactive)

Just so you know, measured growth AUC normalised to DMSO control for Clc1ccc(CSC(Cn2ccnc2)c2ccc(Cl)cc2Cl)cc1 (stereo not drawn) [Sulconazole nitrate] came out at 1.06 (inactive)

Just so you know, measured growth AUC normalised to DMSO control for CCN(CCO)CCCC(C)Nc1ccnc2cc(Cl)ccc12 (stereo not drawn) [Hydroxychloroquine sulfate] came out at 0.988 (inactive)

Just so you know, measured growth AUC normalised to DMSO control for CCCCNc1c(C(=O)OCC)c(C)nc2c1cnn2CC [Tracazolate hydrochloride] came out at 1.03 (inactive)

* * *

- Tested on: Yersinia pseudotuberculosis
- test.protocol: growth AUC normalised to DMSO control (fraction of control); higher = less growth inhibition, active = hit call of the paper
- test.parameters: 20 µM
Where a name gives a salt, the structure may show the parent alone.
Kindly return true (1) if reported growth AUC normalised to DMSO control is no lower than 1; return false (0) if it is lower.

Below are worked cases with known answers.
Incoming: Exam item: decide whether the reported growth AUC normalised to DMSO control for CC(=O)OCC1=C(C(=O)O)N2C(=O)[C@@H](NC(=O)Cc3cccs3)[C@H]2SC1 [Cephalothin sodium salt] is at least 1.
Outgoing: false (0)

Incoming: Exam item: decide whether the reported growth AUC normalised to DMSO control for Nc1ccc(O)c(C(=O)O)c1 is at least 1.
Outgoing: true (1)

Incoming: Exam item: decide whether the reported growth AUC normalised to DMSO control for OCCOCCN1CCN(C(c2ccccc2)c2ccc(Cl)cc2)CC1 (centres undefined) [Hydroxyzine dihydrochloride] is at least 1.
Outgoing: false (0)

Okay, now this compound:
Incoming: Exam item: decide whether the reported growth AUC normalised to DMSO control for CCN1CCN(C(=O)N[C@@H](C(=O)N[C@@H]2C(=O)N3[C@@H]2SC(C)(C)[C@@H]3C(=O)O)c2ccccc2)C(=O)C1=O [Piperacillin sodium salt] is at least 1.
Outgoing: false (0)
